- target-or-system: EGFR (L858R T790M C797S) (Homo sapiens, UniProt P00533, C797S/L858R/T790M)
- Sequence (P00533 25-1210 T790M/C797S/L858R): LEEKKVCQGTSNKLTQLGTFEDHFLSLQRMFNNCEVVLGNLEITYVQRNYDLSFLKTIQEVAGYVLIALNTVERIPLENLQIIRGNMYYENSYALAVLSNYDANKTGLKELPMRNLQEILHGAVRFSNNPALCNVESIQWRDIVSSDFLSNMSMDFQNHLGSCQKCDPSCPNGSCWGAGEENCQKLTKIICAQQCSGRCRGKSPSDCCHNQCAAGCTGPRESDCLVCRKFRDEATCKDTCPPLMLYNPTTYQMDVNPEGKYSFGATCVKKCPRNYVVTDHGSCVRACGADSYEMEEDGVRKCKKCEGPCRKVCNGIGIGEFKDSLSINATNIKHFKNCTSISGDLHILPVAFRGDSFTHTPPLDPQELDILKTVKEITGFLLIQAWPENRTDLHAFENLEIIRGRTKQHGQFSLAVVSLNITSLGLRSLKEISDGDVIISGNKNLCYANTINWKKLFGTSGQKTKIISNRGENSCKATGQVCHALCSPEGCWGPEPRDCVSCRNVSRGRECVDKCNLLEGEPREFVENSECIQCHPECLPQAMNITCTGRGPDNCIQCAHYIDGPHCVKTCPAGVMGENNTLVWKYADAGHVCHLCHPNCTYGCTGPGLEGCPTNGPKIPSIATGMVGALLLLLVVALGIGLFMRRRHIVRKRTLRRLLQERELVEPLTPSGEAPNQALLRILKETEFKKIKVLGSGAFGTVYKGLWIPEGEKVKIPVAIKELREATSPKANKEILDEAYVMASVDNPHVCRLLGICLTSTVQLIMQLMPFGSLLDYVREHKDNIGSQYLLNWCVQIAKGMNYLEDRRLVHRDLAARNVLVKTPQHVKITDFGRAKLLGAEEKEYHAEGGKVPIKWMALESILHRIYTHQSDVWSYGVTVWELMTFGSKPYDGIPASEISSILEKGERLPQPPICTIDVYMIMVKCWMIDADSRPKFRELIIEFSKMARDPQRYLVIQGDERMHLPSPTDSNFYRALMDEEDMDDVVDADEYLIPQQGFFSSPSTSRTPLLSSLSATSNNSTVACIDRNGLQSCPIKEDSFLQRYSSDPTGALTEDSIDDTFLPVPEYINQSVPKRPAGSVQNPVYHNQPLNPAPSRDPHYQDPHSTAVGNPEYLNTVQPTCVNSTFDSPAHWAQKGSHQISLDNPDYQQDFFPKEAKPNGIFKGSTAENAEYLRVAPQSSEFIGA
- protocol-text: Biochemical EGFR inhibition assay (Caliper mobility shift), EGFR LRTMCS mutant
- stated-conditions: inhibitory activity against EGFR LRTMCS mutant; apparent IC50; read-out: Ext Enz LRTMCS
pIC50: −log10 of the molar value.
measured-attribute: pIC50

A selection of reference data follows.
compound="CC1(C)CN(c2nccc(Nc3cc4c(F)cc(F)c(N5CC(CS(C)(=O)=O)C5)c4cn3)n2)C[C@@H](F)[C@H]1O (single isomer, unassigned) [Compound 86]" measured_attribute=pIC50 result="7.52 to 7.70"
compound="CO[C@@H]1CCN(c2nccc(Nc3cc4c(C(C)C)cnc(N5CC(CS(C)(=O)=O)C5)c4cn3)n2)C[C@@H]1F [Compound 72]" measured_attribute=pIC50 result="≥ 7.82"

Below are 6 compounds. Give each one its pIC50.
1. CC(C)c1ccc(N2C[C@H](CS(C)(=O)=O)[C@H]2C)c2cnc(Nc3ccnc(N4CC[C@](C)(O)[C@H](O)C4)n3)cc12 (single isomer, unassigned) [Compound 100]
2. CC(C)c1cnc(N2CC(CS(=O)(=O)C(C)C)C2)c2cnc(Nc3ccnc(N4CC[C@@H](O)[C@@](C)(F)C4)n3)cc12 (single isomer, unassigned) [Compound 188]
3. C[C@@H]1[C@@H](CS(C)(=O)=O)CN1c1ccc(F)c2cc(Nc3ccnc(N4CC[C@@H](O)[C@@](C)(F)C4)n3)ncc12 (single isomer, unassigned) [Compound 33]
4. CCS(=O)(=O)CC1CN(c2ccc(C(C)C)c3cc(Nc4ccnc(N5C[C@@H](O)[C@@H](OC)C(F)(F)C5)n4)ncc23)C1 (single isomer, unassigned) [Compound 294]
5. CN[C@H]1CCN(c2nccc(Nc3cc4c(C(C)C)ccc(N5C[C@H](CS(C)(=O)=O)[C@H]5C)c4cn3)n2)CC1(F)F (single isomer, unassigned) [Compound 309]
6. CC(C)c1ccc(N2CC(CS(C)(=O)=O)C2)c2cnc(Nc3ccnc(N4CC[C@H](O)[C@H](F)C4)n3)cc12 [Compound 29]

[reply]
1. ≥ 7.82
2. ≥ 7.82
3. ≥ 7.82
4. 7.52 to 7.70
5. 7.70 to 7.82
6. ≥ 7.82
